System: Liver cytosol
Experiment: Drug metabolism in human liver cytosol assessed as 2-cyclohexyl-2-phenylglycolic acid formation by Michaelis-Menten equation
Type: ADME, tissue-based
parameter: Km (µM)
A number alone suffices; assume µM.

Request: Need Km, item CCN(CC)CC#CCOC(=O)C(O)(c1ccccc1)C1CCCCC1.Cl (stereo unspecified) [OXYBUTYNIN CHLORIDE]
Result: 13

---

Tested on: Liver microsome
Assay: Intrinsic clearance in human liver microsomes assessed as 2-cyclohexyl-2-phenylglycolic acid formation per mg of protein by Michaelis-Menten equation
Format: ADME
parameter: CLint

Request: Lab request: please report CLint under test system Liver microsome for CCN(CC)CC#CCOC(=O)C(O)(c1ccccc1)C1CCCCC1.Cl (stereo unspecified) [OXYBUTYNIN CHLORIDE]
Result: 5.9 µL/min/mg
